// data source = the kinase profiling compilation of Christmann-Franck et al. (2016)

molecular target: PIK3C2G (human); experiment: KINOMEscan competition binding; conditions: compound 10.0 µM
Observed Property: kinase still bound, per cent of control (%)
Value expressed in %; do not type the unit.

Look over these answered cases.
Query Smiles	kinase still bound, per cent of control, %
COc1ccc(CNC(=O)Nc2ncc([N+](=O)[O-])s2)cc1	100
Cc1cnc(-c2cnc(NCCNc3ccc(C#N)cn3)nc2-c2ccc(Cl)cc2Cl)[nH]1	100
Cn1cc(C2=C(c3ccc(Cl)cc3Cl)C(=O)NC2=O)c2ccccc21	94

Attention now turns to another entry.
Which measured kinase still bound, per cent of control value corresponds to O=C1Nc2cc(Br)ccc2/C1=C1/Nc2ccccc2/C1=N\O ?
100
